Below, each entry is listed alongside its reported Mean (relative fluorescence intensity), 293-TGFβ Res reporter cells.
# MEASURED_ON: TSP-1 protein expressed by PMA-differentiated THP-1 macrophage-like cells (UniProt P07996 19-1170)
# Sequence (P07996 19-1170 limits assumed): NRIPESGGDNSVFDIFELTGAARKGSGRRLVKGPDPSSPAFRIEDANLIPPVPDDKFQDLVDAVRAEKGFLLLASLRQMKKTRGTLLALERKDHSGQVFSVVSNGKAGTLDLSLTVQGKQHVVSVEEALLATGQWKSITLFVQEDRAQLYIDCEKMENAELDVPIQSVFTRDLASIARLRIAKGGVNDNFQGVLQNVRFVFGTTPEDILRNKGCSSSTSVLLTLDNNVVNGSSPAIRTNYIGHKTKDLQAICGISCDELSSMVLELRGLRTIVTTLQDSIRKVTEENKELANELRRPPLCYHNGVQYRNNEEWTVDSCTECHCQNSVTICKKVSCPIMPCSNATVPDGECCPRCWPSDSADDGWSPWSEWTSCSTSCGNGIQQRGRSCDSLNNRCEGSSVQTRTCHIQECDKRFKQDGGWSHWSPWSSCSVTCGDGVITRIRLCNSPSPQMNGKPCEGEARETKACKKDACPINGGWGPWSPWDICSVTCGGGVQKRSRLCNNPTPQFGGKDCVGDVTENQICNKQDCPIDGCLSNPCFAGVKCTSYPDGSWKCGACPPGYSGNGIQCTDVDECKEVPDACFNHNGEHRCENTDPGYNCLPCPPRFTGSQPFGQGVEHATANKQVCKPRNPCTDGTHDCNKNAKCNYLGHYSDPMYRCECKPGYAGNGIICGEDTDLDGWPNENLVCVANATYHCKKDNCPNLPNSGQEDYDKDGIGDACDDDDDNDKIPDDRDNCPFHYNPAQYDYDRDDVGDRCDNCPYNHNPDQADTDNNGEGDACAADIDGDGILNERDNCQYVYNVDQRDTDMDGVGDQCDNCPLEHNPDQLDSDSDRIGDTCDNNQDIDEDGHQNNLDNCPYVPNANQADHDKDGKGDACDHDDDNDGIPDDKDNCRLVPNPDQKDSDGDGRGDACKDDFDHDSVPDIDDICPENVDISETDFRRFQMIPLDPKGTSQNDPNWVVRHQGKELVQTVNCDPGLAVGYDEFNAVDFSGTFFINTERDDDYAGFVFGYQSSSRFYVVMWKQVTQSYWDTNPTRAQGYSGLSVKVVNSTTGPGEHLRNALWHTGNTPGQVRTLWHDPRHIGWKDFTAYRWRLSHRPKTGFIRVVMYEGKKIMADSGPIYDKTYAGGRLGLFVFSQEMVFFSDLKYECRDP
# TEST_SUMMARY: cell-based or functional assay
OBSERVABLE: Mean (relative fluorescence intensity), 293-TGFβ Res reporter cells

>>> result("Ac-TQDPEDN-NH2 (also called TQDPEDN) [SEQ ID NO: 14]")
"0.7 ratio to negative control"
>>> result("Ac-TQDPED-NH2 [SEQ ID NO: 03]")
"0.7 ratio to negative control"
>>> result("Ac-TQDAEDPTAS-NH2 [SEQ ID NO: 25]")
"0.73 ratio to negative control"
>>> result("Ac-QDAEDN-NH2 [SEQ ID NO: 05]")
"0.83 ratio to negative control"
>>> result("Ac-TQDAEDPTA-NH2 [SEQ ID NO: 22]")
"0.74 ratio to negative control"
